Origin of values: the supplement of paper PMC10567573

B1: ZNF511 (parent)
chain: EPLPVERDPAAGAAPFRFVARPVR

Variants of: B1
measurementDescription: protein stability index of a GFP-peptide fusion (GPS, HEK-293T) (PSI 1-6); higher = more stable;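 further: lentivirally expressed fusions sorted by FACS into six bins by GFP to DsRed ratio, PSI derived from sequencing read proportions per bin multiplied by bin number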
condition: c terminus: a fixed tail appended
observedProperty: protein stability index
Please reply with the number alone, leaving off any unit.

The examples below pair each entry with its known result.
- mutationSpec: "A14Y"
  protein stability index: 1.96
- mutationSpec: "A20K"
  protein stability index: 1.97
- mutationSpec: "A20G"
  protein stability index: 2.04
- mutationSpec: "E6K"
  protein stability index: 1.99
- mutationSpec: "E1N"
  protein stability index: 2
- mutationSpec: "A20S"
  protein stability index: 2.05
- mutationSpec: "V5H"
  protein stability index: 1.96
- mutationSpec: "R24H"
  protein stability index: 2.02

Proceed to the following item.
// query Record request: protein stability index value, item "L3F"
// result 2.01
